# System: NCI-H23 lung
# experiment_summary: NCI-60 one-dose screen, 48 h (100 = growth as untreated, 0 = no growth, -100 = all killed)
# run_parameters: 10 µM unless noted
# Procedure: Growth inhibition of the NCI-H23 human Non-Small Cell Lung tumor cell line is measured as a screen for anti-cancer activity. Cells are grown in 96 well plates and exposed to the test compound for 48 hours. Compounds are tested at a single concentration, which is 10^-5 M for most compounds. The reported endpoint is percent growth (GI% or GIPRCNT), where numbers from 0 - 100% represent growth inhibition, and numbers from -100% - 0 represent cell death. […]
The panel holds about 83,000 compounds, 20% with a hit somewhere; the sample as a whole holds those more often.
Recorded growth by entry

# compound, growth, %
records = [
    ("CN1CCN(C(=O)c2cc(-c3ccc4ncnc(N5CCc6cc(F)c(Cl)cc65)c4c3)cnc2N)CC1", 8.25),
    ("Cc1cc2nc(-c3c(-c4ccc(F)cc4)nc4sccn34)[nH]c2cc1C", 94),
    ("COc1ccc(Nc2ncccc2NC(=O)c2cn(Cc3cccc(Oc4ccccc4)c3)nn2)cc1OC", 76),
    ("CC(C)c1ccc(-n2c(=S)[nH]c3sc4c(c3c2=O)CCC(=O)C4)cc1", 36.2),
    ("CCN(CC)c1ccc(/C=N/NC(=O)c2ccc(Nc3ccnc(C(F)(F)F)c3)cc2)c(O)c1", 31),
    ("O=C(Nc1cccc(NC(=O)C2CCCCC2)c1)c1ccccn1", 88.3),
    ("Cc1ccc(O)c(NC(=O)c2ccc(CNc3ccnc(C(F)(F)F)c3)cc2)c1", 81.1),
    ("O=C(CN1C(=O)/C(=C/c2ccco2)SC1=S)NCCc1c[nH]c2ccc(F)cc12", 94.7),
    ("COc1ccc(-c2nnc(SCC(=O)Nc3ccc(/C(C)=N\\O)cc3)n2-c2ccccc2)cc1OC", 68.8),
    ("CCN(C(=O)N1CCN(c2cc3c(cc2F)c(=O)c(C(=O)O)cn3C2CC2)CC1)c1nc(-c2ccc(C)cc2)cs1", 6.95),
    ("N#Cc1c(Nc2ccc(F)cc2)n[nH]c1-c1cccs1", 85.2),
    ("CC(C(=O)O)n1c(O)c(C=Nc2cccnc2)sc1=S (configuration not stated)", 99.1),
]

* * *

# Tested on: SK-MEL-5 melanoma
# experiment_summary: NCI-60 one-dose screen, 48 h (100 = growth as untreated, 0 = no growth, -100 = all killed)
# run_parameters: 10 µM unless noted
Compounds without any hit were thinned out: in the full panel of roughly 83,000, 20% have a hit.

# molecule, measure_unit, growth
data = [
    ("CN(C)c1ccc(/C=C/C(=O)c2ccc(Nc3nc(Nc4ccc(F)cc4)nc(Nc4ccc(Cl)cc4)n3)cc2)cc1", "%", 50.2),
    ("O=C1OCC2=C1C(c1cccc(C(F)(F)F)c1)c1cc3c(cc1N2CCO)OCO3 (stereo not given)", "%", 20),
    ("COc1ccc2nc3ccccc3c(NCc3ccccc3)c2c1", "%", 18.8),
    ("O=C1OCC2=C1C(c1cccc(F)c1)c1cc3c(cc1N2CCO)OCO3 (stereo not given)", "%", 22.8),
    ("Cc1ccc(-c2cc(C(=O)N3N=C(c4ccc(N)cc4)CC3c3ccc(Cl)cc3)c3ccccc3n2)cc1 (stereo not given)", "%", 12.4),
    ("COc1ccc2cc(-c3ccc(-c4ccc(C(=N)N)s4)s3)ccc2c1", "%", 95.1),
    ("O=C(CSc1nnc2sc(Nc3cccc(Cl)c3)nn12)c1ccc(F)cc1", "%", 98.5),
    ("O=C(Cn1cc(CN2C(=O)c3ccccc3S2(=O)=O)nn1)Nc1cccc(Cl)c1", "%", 106),
    ("CC[C@@H](c1ccc2cc(OC)ccc2c1)C(C)(C)C(=O)F", "%", 106),
    ("C=CC(=O)NCCOc1cccc(Nc2cc(NCCCNC(=O)C3CCC3)c(Br)cn2)c1", "%", -41.4),
    ("O=C1/C(=C/c2ccccc2[N+](=O)[O-])COc2ccc(O)cc21", "%", 59.1),
    ("COP(=O)(OC)c1nnn(-c2cccc([N+](=O)[O-])c2)c1C", "%", 100),
    ("CC1(C)CC2=C3C=C[C@@H]4[C@@]5(C)CC[C@H](O)C(C)(C)[C@@H]5CC[C@@]4(C)[C@]3(C)CC[C@@]2(C(=O)O)CC1=O", "%", 25.3),
    ("Cc1cscc(C)c1=S", "%", 90.2),
    ("NC(=O)OCCn1cc(-c2nc(-c3c[nH]c4ncccc34)cs2)c2ccccc21", "%", 18.5),
]

Data origin, for the record: PubChem BioAssay (NCI)
